# test_system: T1, free soluble human E-selectin in human serum (human, UniProt P16581 22-556, limits assumed)
# T1 construct: also called endogenous human E-selectin
# T1 sequence (looked up): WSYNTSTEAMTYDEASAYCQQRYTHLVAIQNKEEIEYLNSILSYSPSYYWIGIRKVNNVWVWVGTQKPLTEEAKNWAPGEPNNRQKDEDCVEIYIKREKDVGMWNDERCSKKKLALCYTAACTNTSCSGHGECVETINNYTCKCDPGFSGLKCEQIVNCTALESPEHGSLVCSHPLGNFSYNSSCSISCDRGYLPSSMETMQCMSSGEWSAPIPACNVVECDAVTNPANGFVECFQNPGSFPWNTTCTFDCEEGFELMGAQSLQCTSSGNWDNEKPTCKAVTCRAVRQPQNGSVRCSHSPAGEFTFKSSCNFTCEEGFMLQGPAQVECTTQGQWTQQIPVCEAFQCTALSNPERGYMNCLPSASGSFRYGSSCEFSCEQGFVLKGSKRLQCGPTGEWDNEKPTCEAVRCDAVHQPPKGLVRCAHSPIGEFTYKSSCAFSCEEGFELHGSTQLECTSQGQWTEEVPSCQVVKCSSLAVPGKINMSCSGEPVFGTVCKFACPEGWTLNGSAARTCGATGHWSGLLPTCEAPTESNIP
# run_description: IP-LC/MS/MS of free soluble E-selectin in human serum, capture by biotinylated 0164
reported_property: IC50 (nM)
Reply numerically in nM, unit not repeated.

So what's the measured IC50 for this one? optimized anti-E-selectin antibody 1444 (antibody, human IgG1, kappa, V domains shown, effector-null human IgG1, kappa) VH: EVQLVESGGGLVQPGGSLRLSCAASGYAIRSAYMHWVRQAPGKGLEWVARIDPANGNTIYVDSVTGRFTISADNAKNSAYLQMNSLRAEDTAVYYCAMDLYSTSEYWGQGTLVTVSS VL: DIQMTQSPSSLSASVGDRVTITCKTSQNIERYLNWYQQKPGKAPKLLIYAASSLQSGVPSRFSGSGSGTDFTLTISSLQPEDFATYFCLQDNAWPLTFGQGTKVEIKR 1.2

Try this binder too: optimized anti-E-selectin antibody 1284 (antibody, human IgG1, kappa, V domains shown, effector-null human IgG1, kappa) VH: EVQLVESGGGLVQPGGSLRLSCAASGYAIRSAYMHWVRQAPGKGLEWVARIDPANGNTIYVESVEGRFTISADNAKNSAYLQMNSLRAEDTAVYYCAMDLYSTSEYWGQGTLVTVSS VL: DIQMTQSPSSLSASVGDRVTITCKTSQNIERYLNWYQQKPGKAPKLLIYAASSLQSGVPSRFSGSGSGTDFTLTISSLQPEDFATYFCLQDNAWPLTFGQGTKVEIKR 1.1

Try this binder too: optimized anti-E-selectin antibody 1282 (antibody, human IgG1, kappa, V domains shown, effector-null human IgG1, kappa) VH: EVQLVESGGGLVQPGGSLRLSCAASGYAIRSAYMHWVRQAPGKGLEWVARIDPANGNTIYVDSVEGRFTISADNAKNSAYLQMNSLRAEDTAVYYCAMDLYSTSEYWGQGTLVTVSS VL: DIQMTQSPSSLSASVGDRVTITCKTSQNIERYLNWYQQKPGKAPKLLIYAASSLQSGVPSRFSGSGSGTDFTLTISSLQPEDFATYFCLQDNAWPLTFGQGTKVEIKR 2.4

Try this binder too: optimized anti-E-selectin antibody 1448 (antibody, human IgG1, kappa, V domains shown, effector-null human IgG1, kappa) VH: EVQLVESGGGLVQPGGSLRLSCAASGYAIRSAYMHWVRQAPGKGLEWVARIDPANGNTIYVDSVKERFTISADNAKNSAYLQMNSLRAEDTAVYYCAMDLYSTSEYWGQGTLVTVSS VL: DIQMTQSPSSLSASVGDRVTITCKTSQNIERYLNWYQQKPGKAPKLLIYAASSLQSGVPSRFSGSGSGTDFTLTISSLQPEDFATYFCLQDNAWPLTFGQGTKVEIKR 1.8
